target: T1, CD3 epsilon homodimer protein (UniProt P07766 23-126); assay: SPR Biacore T200, CD3e homodimer on chip, vs unaltered GLS3000 antibody
T1 construct: also called CD3 (CD3 epsilon)
T1 sequence (P07766 23-126): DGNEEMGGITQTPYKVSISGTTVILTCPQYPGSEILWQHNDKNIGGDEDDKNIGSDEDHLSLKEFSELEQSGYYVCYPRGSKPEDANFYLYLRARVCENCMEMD
For each entry below, report its ratio of amounts bound (Z=Y/X) value.
Write the value as a bare number.

Query: For GLS3000 T31D (antibody, name in Kabat numbering, V domains shown, one-arm IgG as m2) VH: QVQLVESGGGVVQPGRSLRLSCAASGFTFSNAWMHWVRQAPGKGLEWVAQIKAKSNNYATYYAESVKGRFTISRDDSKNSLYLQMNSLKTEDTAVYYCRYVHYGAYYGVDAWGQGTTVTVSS VL: DIVMTQSPLSLPVTPGEPASISCRSSQSLVHSNRNDYLHWYQQKPGQAPRLLIYKVSNRFSGVPDRFSGSGSGTDFTLKISRVEAEDVGVYYCGQGTQVPYTFGQGTKLEIK , what is its reported ratio of amounts bound (Z=Y/X)?
Response: 0.23

Query: Find the recorded ratio of amounts bound (Z=Y/X) belonging to GLS3000 R29P (antibody, name in Kabat numbering, V domains shown, one-arm IgG as m2) VH: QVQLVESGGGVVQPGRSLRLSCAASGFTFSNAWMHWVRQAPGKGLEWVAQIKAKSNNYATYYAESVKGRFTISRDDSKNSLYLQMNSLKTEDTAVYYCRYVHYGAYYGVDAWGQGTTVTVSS VL: DIVMTQSPLSLPVTPGEPASISCRSSQSLVHSNPNTYLHWYQQKPGQAPRLLIYKVSNRFSGVPDRFSGSGSGTDFTLKISRVEAEDVGVYYCGQGTQVPYTFGQGTKLEIK and report it.
Response: 0.31

Query: // lookup ratio of amounts bound (Z=Y/X) for GLS3000 R24Y (antibody, name in Kabat numbering, V domains shown, one-arm IgG as m2) VH: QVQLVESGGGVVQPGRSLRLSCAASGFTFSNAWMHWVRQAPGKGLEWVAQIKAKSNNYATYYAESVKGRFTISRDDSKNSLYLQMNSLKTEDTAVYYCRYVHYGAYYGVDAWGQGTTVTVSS VL: DIVMTQSPLSLPVTPGEPASISCYSSQSLVHSNRNTYLHWYQQKPGQAPRLLIYKVSNRFSGVPDRFSGSGSGTDFTLKISRVEAEDVGVYYCGQGTQVPYTFGQGTKLEIK
Response: 0.87

Query: Requested field: ratio of amounts bound (Z=Y/X). Item: GLS3000 L33P (antibody, name in Kabat numbering, V domains shown, one-arm IgG as m2) VH: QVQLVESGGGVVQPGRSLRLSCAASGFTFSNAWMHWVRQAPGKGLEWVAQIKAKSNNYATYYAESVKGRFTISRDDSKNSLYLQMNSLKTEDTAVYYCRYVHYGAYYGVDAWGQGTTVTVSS VL: DIVMTQSPLSLPVTPGEPASISCRSSQSLVHSNRNTYPHWYQQKPGQAPRLLIYKVSNRFSGVPDRFSGSGSGTDFTLKISRVEAEDVGVYYCGQGTQVPYTFGQGTKLEIK
Response: 0.3

Query: Fill blank: measured ratio of amounts bound (Z=Y/X) of the binder GLS3000 S56I (antibody, name in Kabat numbering, V domains shown, one-arm IgG as m2) VH: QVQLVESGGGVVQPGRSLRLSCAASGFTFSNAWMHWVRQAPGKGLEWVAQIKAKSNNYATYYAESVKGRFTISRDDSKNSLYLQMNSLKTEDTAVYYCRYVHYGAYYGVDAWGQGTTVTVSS VL: DIVMTQSPLSLPVTPGEPASISCRSSQSLVHSNRNTYLHWYQQKPGQAPRLLIYKVSNRFIGVPDRFSGSGSGTDFTLKISRVEAEDVGVYYCGQGTQVPYTFGQGTKLEIK is ____.
Response: 0.99

Query: Give the measured ratio of amounts bound (Z=Y/X) of GLS3000 N30W (antibody, name in Kabat numbering, V domains shown, one-arm IgG as m2) VH: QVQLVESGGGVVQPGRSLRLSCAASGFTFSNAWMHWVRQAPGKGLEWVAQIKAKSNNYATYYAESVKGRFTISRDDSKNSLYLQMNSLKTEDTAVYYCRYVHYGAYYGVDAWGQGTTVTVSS VL: DIVMTQSPLSLPVTPGEPASISCRSSQSLVHSNRWTYLHWYQQKPGQAPRLLIYKVSNRFSGVPDRFSGSGSGTDFTLKISRVEAEDVGVYYCGQGTQVPYTFGQGTKLEIK .
Response: 0.99

Query: Which ratio of amounts bound (Z=Y/X) reading was recorded for the binder GLS3000 S56E (antibody, name in Kabat numbering, V domains shown, one-arm IgG as m2) VH: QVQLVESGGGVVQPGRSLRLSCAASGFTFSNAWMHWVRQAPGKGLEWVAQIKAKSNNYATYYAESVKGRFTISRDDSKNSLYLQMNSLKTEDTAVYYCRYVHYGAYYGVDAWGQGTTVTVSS VL: DIVMTQSPLSLPVTPGEPASISCRSSQSLVHSNRNTYLHWYQQKPGQAPRLLIYKVSNRFEGVPDRFSGSGSGTDFTLKISRVEAEDVGVYYCGQGTQVPYTFGQGTKLEIK ?
Response: 0.71

Query: Please give the measured ratio of amounts bound (Z=Y/X) for this binder: GLS3000 H34Q (antibody, name in Kabat numbering, V domains shown, one-arm IgG as m2) VH: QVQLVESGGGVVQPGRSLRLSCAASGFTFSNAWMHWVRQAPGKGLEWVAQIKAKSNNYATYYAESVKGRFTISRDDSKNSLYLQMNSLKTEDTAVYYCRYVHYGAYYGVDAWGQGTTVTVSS VL: DIVMTQSPLSLPVTPGEPASISCRSSQSLVHSNRNTYLQWYQQKPGQAPRLLIYKVSNRFSGVPDRFSGSGSGTDFTLKISRVEAEDVGVYYCGQGTQVPYTFGQGTKLEIK
Response: 0.25

Query: Data request, read-out ratio of amounts bound (Z=Y/X), for GLS3000 N30M (antibody, name in Kabat numbering, V domains shown, one-arm IgG as m2) VH: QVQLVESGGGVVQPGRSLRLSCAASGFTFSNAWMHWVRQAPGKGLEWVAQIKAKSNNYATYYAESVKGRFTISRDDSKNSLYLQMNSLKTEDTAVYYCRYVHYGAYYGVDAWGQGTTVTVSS VL: DIVMTQSPLSLPVTPGEPASISCRSSQSLVHSNRMTYLHWYQQKPGQAPRLLIYKVSNRFSGVPDRFSGSGSGTDFTLKISRVEAEDVGVYYCGQGTQVPYTFGQGTKLEIK
Response: 0.8

Query: Which ratio of amounts bound (Z=Y/X) reading was recorded for the binder GLS3000 R54T (antibody, name in Kabat numbering, V domains shown, one-arm IgG as m2) VH: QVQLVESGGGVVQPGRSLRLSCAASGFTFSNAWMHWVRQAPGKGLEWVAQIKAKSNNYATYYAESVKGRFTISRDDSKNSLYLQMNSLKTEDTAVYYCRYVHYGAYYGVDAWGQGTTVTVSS VL: DIVMTQSPLSLPVTPGEPASISCRSSQSLVHSNRNTYLHWYQQKPGQAPRLLIYKVSNTFSGVPDRFSGSGSGTDFTLKISRVEAEDVGVYYCGQGTQVPYTFGQGTKLEIK ?
Response: 0.65

Hey, just so you know, these numbers are from patent US20210388087A1.
